These data points were gathered from ChEMBL document CHEMBL1130087.

# Tested on: liver esterase
# assay.remarks: Half-life catalyzed by Pig Liver Esterase
# Format: ADME, Sus scrofa
Class 1: half-life at least 8 h. Class 0: half-life below 8 h.

>  <compound>
COC(=O)C(C)NP(=O)(OC/C=C\Cn1cnc2c(O)ncnc21)Oc1ccccc1 (stereo not given)

>  <group.label>
1

$$$$
>  <compound>
COC(=O)C(C)NP(=O)(OC/C=C/Cn1cnc2c(N)ncnc21)Oc1ccccc1 (stereo not given)

>  <group.label>
1

$$$$
>  <compound>
COC(=O)C(C)NP(=O)(OCC=C=Cn1cnc2c(O)ncnc21)Oc1ccccc1 (stereo not given)

>  <group.label>
1

$$$$
>  <compound>
COC(=O)C(C)NP(=O)(OCC=C=Cn1cnc2c(N)ncnc21)Oc1ccccc1 (stereo not given)

>  <group.label>
0

$$$$

Consider the record given below.
stdin: Decide: half-life of COC(=O)C(C)NP(=O)(OC/C=C\Cn1cnc2c(N)ncnc21)Oc1ccccc1 (stereo not given) >= 8 h?
stdout: 1

---

# subject.of.test: Human immunodeficiency virus 1
# assay.remarks: tested for its anti-HIV activity.
quantity.name: pEC50
Convention used: pEC50 is expressed as -log10 of the molar concentration.

stdin: Find the recorded pEC50 belonging to Nc1ncnc2c1ncn2C/C=C/CCOCP(=O)(O)O and report it.
stdout: 5.05
